System: OVCAR-8 ovarian
measurement-protocol: NCI-60 one-dose screen, 48 h
measurement-parameters: 10 µM unless noted
About 83,000 compounds went through this panel and 20% of them were active in at least one assay; those are over-represented in the sample as a whole. Activity calls are given as the source filed them. Rule for the calls: active = growth percent below 10; inactive = the rest.
Classes used: active, inactive

compound | assigned-label
CNC(=O)c1cccc(NC(=O)c2ccc3c(c2)nnn3/C(C#N)=C/c2ccccn2)c1 | inactive
Cn1cc(-c2cc(N)n3nc(-c4cn(C)c5ccc(Cl)cc45)cc3n2)c2ccccc21 | inactive
CCOc1ccc(C(=O)NC(=S)Nc2ccc(S(N)(=O)=O)cc2)cc1 | inactive
C=C1CCC2C3(C)COC(c4ccccc4F)OC3CCC2(C)C1CC(O)C1=CCOC1=O (stereo not given) | active
Cc1ccc(Cc2cnc(NC(=O)c3ccc(/C=C4\SC(=S)N(C)C4=O)cc3)s2)cc1 | inactive

----------
Tested on: IGROV1 ovarian
measurement-protocol: NCI-60 one-dose screen, 48 h
measurement-parameters: 10 µM unless noted
The panel holds about 83,000 compounds, 20% with a hit somewhere; the sample as a whole holds those more often. The source made the active and inactive calls. The calls were made as follows: active = growth percent below 10; inactive = the rest.
Classes used: active, inactive

compound | system-name | assigned-label
Cc1ccc(C2CC(c3ccc(S(=O)(=O)NCCNc4nc(Nc5ccc(F)cc5)nc(N(C)C)n4)cc3)=Nc3c(N)nc(N)nc3N2)cc1 (centres undefined) | IGROV1 ovarian | inactive
CC(=O)c1cc(C(=O)c2ccccc2)n2c1ccc1ccccc12 | IGROV1 ovarian | inactive
COc1cc(-c2ccc(/C=N/NC(=O)c3[nH]c4ccc(Br)cc4c3-c3ccccc3)s2)cc(OC)c1OC | IGROV1 ovarian | inactive
Nc1nnc(-c2c[nH]c3ncc(Br)cc23)c(-c2c[nH]c3ccc(F)cc23)n1 | IGROV1 ovarian | inactive
COc1cc2c(c(OC)c1OC)C(=O)CC(c1cccc(NC(=O)c3cc(N)ccc3Cl)c1)O2 (centres undefined) | IGROV1 ovarian | inactive
COc1ccc2c(c1)c(-c1cc(N)n3nc(-c4cn(C)c5ccccc45)cc3n1)cn2C | IGROV1 ovarian | active
O=C(C1=CNC(=S)NC1c1ccc(O)cc1)c1cc2ccccc2oc1=O (centres undefined) | IGROV1 ovarian | inactive
CN(C)CCCNC(=O)c1cc(NC(=O)c2cc(NC(=O)c3ccc(C#Cc4ccccc4)cc3)cn2C)cn1C | IGROV1 ovarian | inactive
C=C1CCC2C3(C)COC(c4ccc(F)cc4)OC3CCC2(C)C1C/C=C1/C(=O)OCC1O (centres undefined) | IGROV1 ovarian | active

----------
Tested on: 786-0 renal
measurement-protocol: NCI-60 one-dose screen, 48 h
measurement-parameters: 10 µM unless noted
About 83,000 compounds went through this panel and 20% of them were active in at least one assay; those are over-represented in the sample as a whole. The source made the active and inactive calls. The calls were made as follows: active = growth percent below 10; inactive = the rest.
Classes used: T for active, F for inactive

compound | assigned-label
COc1cc2c(c(OC)c1OC)C(=O)CC(c1cccc(NC(=O)c3cc(NC(=O)[C@H](C)N)ccc3Cl)c1)O2 (stereo not given in full) | F
Clc1cccc(-c2ccc(OCCCN3CCN(c4ccncc4)CC3)cc2)c1 | T
N#Cc1c(-c2cccnc2)cc(-c2ccc3ccccc3c2)[nH]c1=O | F
O=C(COc1ccc(NC(=O)Nc2ccc(Cl)c(Cl)c2)cc1)N=Nc1c(O)[nH]c2ccccc12 | T
CCOC(=O)C(N=Nc1ccc(S(=O)(=O)N=C(N)N)cc1)C(C)=O (stereo not given) | F
